Biological target: T1, Hb substrate solution: Hemoglobin Human (Homo sapiens, UniProt P68871+P69905)
T1 construct: purchased Sigma-Aldrich Co
T1 sequence (P69905 2-142 limits assumed): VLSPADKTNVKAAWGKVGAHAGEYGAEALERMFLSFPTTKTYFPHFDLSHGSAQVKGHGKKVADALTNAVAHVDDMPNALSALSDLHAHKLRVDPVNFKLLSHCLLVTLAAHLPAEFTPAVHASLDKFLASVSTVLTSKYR
T1 sequence (P68871 2-147 limits assumed): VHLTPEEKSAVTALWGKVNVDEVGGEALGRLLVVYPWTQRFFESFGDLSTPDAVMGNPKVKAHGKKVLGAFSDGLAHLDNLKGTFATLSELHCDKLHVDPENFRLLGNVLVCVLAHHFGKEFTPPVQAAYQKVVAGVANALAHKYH
Assay: Activity of various proteases on Hb substrate solution (R-FOD assay)
Type: biochemical
Settings: pH 8.0; 37° C. for 60 minutes
This listing pairs molecules with measured ΔA Hb.

molecule: Carboxypeptidase A: protease, origin Cow pancreas (protein, UniProt P00730 111-419, looked up) Carboxypeptidase A1: ARSTNTFNYATYHTLDEIYDFMDLLVAEHPQLVSKLQIGRSYEGRPIYVLKFSTGGSNRPAIWIDLGIHSREWITQATGVWFAKKFTEDYGQDPSFTAILDSMDIFLEIVTNPDGFAFTHSQNRLWRKTRSVTSSSLCVGVDANRNWDAGFGKAGASSSPCSETYHGKYANSEVEVKSIVDFVKDHGNFKAFLSIHSYSQLLLYPYGYTTQSIPDKTELNQVAKSAVEALKSLYGTSYKYGSIITTIYQASGGSIDWSYNQGIKYSFTFELRDTGRYGFLLPASQIIPTAQETWLGVLTIMEHTLNNLY
ΔA Hb (mAbs): 13
--
molecule: Proteinase K: protease, origin Tritirachium (protein, UniProt P06873 106-384, looked up) Proteinase K: AAQTNAPWGLARISSTSPGTSTYYYDESAGQGSCVYVIDTGIEASHPEFEGRAQMVKTYYYSSRDGNGHGTHCAGTVGSRTYGVAKKTQLFGVKVLDDNGSGQYSTIIAGMDFVASDKNNRNCPKGVVASLSLGGGYSSSVNSAAARLQSSGVMVAVAAGNNNADARNYSPASEPSVCTVGASDRYDRRSSFSNYGSVLDIFGPGTSILSTWIGGSTRSISGTSMATPHVAGLAAYLMTLGKTTAASACRYIADTANKGDLSNIPFGTVNLLAYNNYQA
ΔA Hb (mAbs): 32
